- target: RalA (Homo sapiens, UniProt P11233)
- Sequence (P11233 1-203): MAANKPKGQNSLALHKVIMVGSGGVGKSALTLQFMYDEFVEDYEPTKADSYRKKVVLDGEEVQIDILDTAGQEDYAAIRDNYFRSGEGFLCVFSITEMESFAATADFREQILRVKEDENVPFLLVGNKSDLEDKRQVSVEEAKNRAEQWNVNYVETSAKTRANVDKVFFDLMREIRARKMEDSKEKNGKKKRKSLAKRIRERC
- assay_info: GST-RalBP1 pulldown of RalA-GTP from RBC8-treated, CRP-stimulated human platelets, immunoblot densitometry
measure: IC50 (nM)
// units = nM; emit number, no label

Ask | Give IC50 for COc1ccc(OC)c(C2C(C#N)=C(N)Oc3n[nH]c(-c4ccc5ccccc5c4)c32)c1 (stereo not shown)
Reply | 2200
